Consider the following compounds; for each one, report its plasma concentration, Caverage.
test: Measurement of phenolics in plasma; assay type: in vivo; details: 2 months old male mice fed diet containing 25% dried plum for 4 weeks
One number for each entry, in nM.

Please review the entries below; each comes with its answer.
compound: COc1ccc(CCC(=O)O)cc1O[C@@H]1O[C@H](C(=O)O)[C@@H](O)[C@H](O)[C@H]1O [Dihydroisoferulic acid 3-O-glucuronide]
parameter: plasma concentration, Caverage
quantitative_result: 1390
//
compound: COc1cc(CCC(=O)O)ccc1O[C@@H]1O[C@H](C(=O)O)[C@@H](O)[C@H](O)[C@H]1O [Dihydroferulic acid 4-O-glucuronide]
parameter: plasma concentration, Caverage
quantitative_result: 4990
//
compound: COc1ccc(/C=C/C(=O)O)cc1O[C@@H]1O[C@H](C(=O)O)[C@@H](O)[C@H](O)[C@H]1O [Isoferulic acid 3-O-glucuronide]
parameter: plasma concentration, Caverage
quantitative_result: 800

Q. Name the reported plasma concentration, Caverage value associated with the compound COc1cc(/C=C/C(=O)O)ccc1O[C@@H]1O[C@H](C(=O)O)[C@@H](O)[C@H](O)[C@H]1O [Ferulic acid 4-O-glucuronide]
A. 3060
